MEASUREMENT_TARGET: α1b (hamster receptor expressed in mouse fibroblasts) (Mesocricetus auratus)
Construct: expressed in transfected cells; host or cells: mouse fibroblasts
Sequence (P18841 whole entry): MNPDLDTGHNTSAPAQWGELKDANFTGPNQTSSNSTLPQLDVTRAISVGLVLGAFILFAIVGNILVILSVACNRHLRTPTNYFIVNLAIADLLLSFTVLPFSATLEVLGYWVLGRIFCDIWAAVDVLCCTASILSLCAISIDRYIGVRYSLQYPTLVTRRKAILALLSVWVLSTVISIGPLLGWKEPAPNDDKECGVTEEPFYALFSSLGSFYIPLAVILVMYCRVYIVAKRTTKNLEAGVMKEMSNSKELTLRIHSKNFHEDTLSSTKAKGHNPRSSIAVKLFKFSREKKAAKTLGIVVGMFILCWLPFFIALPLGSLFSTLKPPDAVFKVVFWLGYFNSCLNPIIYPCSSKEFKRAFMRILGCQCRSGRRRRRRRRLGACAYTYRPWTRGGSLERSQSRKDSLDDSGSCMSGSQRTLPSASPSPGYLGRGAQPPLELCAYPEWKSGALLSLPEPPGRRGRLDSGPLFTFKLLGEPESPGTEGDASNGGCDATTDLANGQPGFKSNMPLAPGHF
RUN_DESCRIPTION: Radioligand binding with [3H]-prazosin, α1b
CONDITION_LABEL: read-out: Radioligand Binding Ki α1b (Hamster)
pKi: −log10 of the molar value. Counter-ions that a name gives are not always drawn.
PROPERTY: pKi

1. COc1ccc2c(c1NS(C)(=O)=O)CCCC2c1c[nH]cn1 (stereo not shown) [Example 1, hydrochloride] :: 5.77
2. CS(=O)(=O)Nc1c(O)ccc2c1CCCC2c1c[nH]cn1 (stereo not shown) [Example 2, hydrochloride] :: 5.60
3. Cn1cnc(C2CCCc3c2ccc(O)c3NS(C)(=O)=O)c1 (stereo not shown) [Example 5, hydrochloride] :: 5.21
4. Cn1cncc1C1CCCc2c1ccc(O)c2NS(C)(=O)=O (stereo not shown) [Example 4, hydrochloride] :: 4.50
